biological target: rat BASIC (Rattus norvegicus, UniProt Q9R0W5); test: Two-electrode voltage clamp, Xenopus laevis oocytes expressing rat BASIC; conditions: read-out: IC50 of BASIC inhibition; in the absence of UDCA (resting state), n = 8
Sequence (Q9R0W5 whole entry): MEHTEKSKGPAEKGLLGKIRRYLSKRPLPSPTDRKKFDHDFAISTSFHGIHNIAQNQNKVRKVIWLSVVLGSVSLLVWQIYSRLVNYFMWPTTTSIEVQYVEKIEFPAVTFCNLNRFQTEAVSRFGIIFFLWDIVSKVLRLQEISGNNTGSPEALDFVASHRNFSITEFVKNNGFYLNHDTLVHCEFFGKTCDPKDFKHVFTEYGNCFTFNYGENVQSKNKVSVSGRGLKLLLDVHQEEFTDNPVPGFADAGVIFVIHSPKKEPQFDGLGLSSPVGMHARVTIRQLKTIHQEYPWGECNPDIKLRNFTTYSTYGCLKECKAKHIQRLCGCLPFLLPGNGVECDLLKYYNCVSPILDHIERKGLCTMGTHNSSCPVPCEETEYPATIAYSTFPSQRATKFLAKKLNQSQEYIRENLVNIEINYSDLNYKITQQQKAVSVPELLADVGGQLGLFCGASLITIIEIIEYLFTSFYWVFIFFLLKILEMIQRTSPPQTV

>  <chemSmiles>
[Gd+3]

>  <assaySystem>
rat BASIC (Rattus norvegicus, UniProt Q9R0W5)

>  <IC50 [µM]>
102

$$$$

----------
biological target: rat BASIC (Rattus norvegicus); assay: Two-electrode voltage clamp, Xenopus laevis oocytes expressing rat BASIC; conditions: read-out: IC50 of BASIC inhibition; in the presence of 2 mM UDCA, n = 8

>  <chemSmiles>
[Gd+3]

>  <unitsSymbol>
µM

>  <IC50>
19

$$$$

----------
target: rat BASIC (Rattus norvegicus); assay: Two-electrode voltage clamp, Xenopus laevis oocytes expressing rat BASIC

>  <chemSmiles>
C[C@H](CCC(=O)NCCS(=O)(=O)O)[C@H]1CC[C@H]2[C@@H]3[C@@H](O)C[C@@H]4C[C@H](O)CC[C@]4(C)[C@H]3CC[C@]12C

>  <assaySystem>
rat BASIC (Rattus norvegicus)

>  <EC50 [µM]>
2700

$$$$
